Reference source for all entries: PubChem BioAssay (NCI)

tested on: HOP-92 NSCLC; test: NCI tumour cell line growth inhibition, 48 h; in the data active = GI50 below about 0.43 µM; inactive = the rest
*1 amine or outer side, *2 acyl side, *3 side chain or, on linkers, in order; H or OH if unused. Where a SMILES comes first, the peptide text is derived from it. Bridges are numbered along the chain shown (N, C = ends). Roman numbers before positions name the chains, in order. [ ]: non-standard residue; d: D form. Actinocin(9to1) = Cc1c2oc3c(C)ccc(C(=O)[*:1])c3nc-2c(C(=O)[*:2])c(N)c1=O; NMeV = CN[CH](C(=O)O)C(C)C; Sar = CNCC(=O)O
In this exercise, the only acceptable responses are active, inactive

See these solved cases before continuing.
# COMPOUND, LABEL CLASS
rows = [
    ("COc1cc(-c2nn(-c3cccc(NC(=O)NCCNS(=O)(=O)c4ccc(Cl)cc4)c3)cc2-c2ccncc2)ccc1Cl", "inactive"),
    ("CCCCCCCN(CCCCCCC)C(=N)c1ccnc2ccccc12", "inactive"),
    ("O=C1CSC(c2ccc(-c3nc4ccccc4[nH]3)cc2)=N1", "inactive"),
    ("Cc1c2oc3c(C)ccc(C(=O)OC(C)C4NC(=O)C(C(C)C)N(C)C(=O)CN(C)C(=O)C5CCCN5C(=O)C(C(C)C)NC4=O)c3nc-2c(C(=O)OC(C)C2NC(=O)C(C(C)C)N(C)C(=O)CN(C)C(=O)C3CCCN3C(=O)C(C(C)C)NC2=O)c(N)c1=O (configuration not stated) (I: cyclo([Sar][NMeV]TVP) / II: cyclo([Sar][NMeV]TVP); linker I:3-II:3 via Actinocin(9to1); configuration not given here)", "active"),
]

Query block: Please state the recorded outcome for this compound: `O=C(O)/C=C/c1ccc[c]([Sb](=[O])([OH])[OH])c1`
Result block: inactive

Query block: # fetch the recorded call for COC1CC(C)C(OC)c2cc(O)cc(c2O)NC(=O)/C(C)=C/C=C\C(C)C(OC(N)=O)/C(C)=C\C(C)C1OC (configuration not stated) here
Result block: active

Query block: Status in this test for `CCC#CC[C@H](O)C/C=C1/C(=O)C=C[C@@H]1C/C=C\CCCC(=O)OC` ?
Result block: inactive

Query block: Given `O=C(Nc1ccc2ncnc(Nc3ccc(Oc4cccc(F)c4)c(Cl)c3)c2c1)c1ccc(CN2CCOCC2)cc1` , state the outcome it received in this test.
Result block: inactive

Query block: Just curious, what result did CC(CN(C)C)S(=O)(=O)c1ccc(-c2cnc(N)c(C(=O)Nc3ccccc3)n2)cc1 (configuration not stated) get here?
Result block: inactive

Query block: Which outcome was entered for the compound `Cc1cc(C(=O)Nc2cc(Oc3ccc4nc(NC(=O)C5CC5)cn4n3)ccc2C)n(C)n1` in this test?
Result block: inactive

Query block: Record lookup: outcome of this test for `N#Cc1ccc(CSc2ncnc3nc[nH]c23)cc1` ?
Result block: inactive

Query block: Please state the recorded outcome for this compound: `COc1cc(OC)c(/C=C/C(=O)c2ccc(Nc3ncnc4ccccc34)cc2)c(OC)c1`
Result block: inactive

Query block: Assay result, entry `COc1cccc(OC(=O)c2ccc(C(F)(F)F)nc2Nc2c(C)cccc2Cl)c1` — outcome?
Result block: inactive

Query block: Can you look up the reported call for `O=C1/C(=C/c2ccc(F)c(F)c2)CN(C(=O)C(Cl)Cl)C/C1=C\c1ccc(F)c(F)c1` for me?
Result block: active

Query block: Outcome logged for `COc1cccc(-n2ncc3c(N/N=C/c4ccc(C)cc4)ncnc32)c1` in this assay:
Result block: inactive

Query block: GET /call?item= `C=CCNc1nc(O)c(/C=C2\C=Nc3ncccc32)s1` returns the recorded outcome of this test.
Result block: active

Query block: Name the outcome recorded for O=P(O)(O)OCC1OC(n2cnc3c(NCc4ccco4)ncnc32)C(O)C1O (configuration not stated) in the assay.
Result block: inactive

----------
test system: SK-MEL-5 melanoma; experiment: NCI tumour cell line growth inhibition, 48 h
*1 amine or outer side, *2 acyl side, *3 side chain or, on linkers, in order; H or OH if unused. Where a SMILES comes first, the peptide text is derived from it. Bridges are numbered along the chain shown (N, C = ends). Roman numbers before positions name the chains, in order. [ ]: non-standard residue; d: D form. Actinocin(9to1) = Cc1c2oc3c(C)ccc(C(=O)[*:1])c3nc-2c(C(=O)[*:2])c(N)c1=O; NMeV = CN[CH](C(=O)O)C(C)C; Sar = CNCC(=O)O
The following molecules are shown together with reported TGI values.

# MOLECULE, STUDY TARGET, OBSERVED
data = [
    ("COc1cc(O)c(C(=O)CC(C)=O)c(OC)c1", "SK-MEL-5 melanoma", "> 100 µM"),
    ("O=C1Nc2ccccc2/C1=C\\c1cccc(/C=C2/C(=O)Nc3ccccc32)n1", "SK-MEL-5 melanoma", "0.722 µM"),
    ("Cc1cc2c(cc1C)[n+](=O)c(C(=O)/C=C/c1ccc3c(c1)OCO3)c(C)n2[O-]", "SK-MEL-5 melanoma", "> 100 µM"),
]

Query block: Read off the recorded TGI for COC(NC(N)=O)C(=O)O (centres undefined)
Result block: > 100 µM

Query block: Entry Cc1c2oc3c(C)ccc(C(=O)OC(C)C4NC(=O)C(C(C)C)N(C)C(=O)CN(C)C(=O)C5CCCN5C(=O)C(C(C)C)NC4=O)c3nc-2c(C(=O)OC(C)C2NC(=O)C(C(C)C)N(C)C(=O)CN(C)C(=O)C3CCCN3C(=O)C(C(C)C)NC2=O)c(N)c1=O (centres undefined) (I: cyclo([Sar][NMeV]TVP) / II: cyclo([Sar][NMeV]TVP); linker I:3-II:3 via Actinocin(9to1); configuration not given here) needs its TGI filled in; supply it.
Result block: 0.0169 µM

Query block: Return value of TGI for input `N=S(=O)(c1ccccc1)c1ccccc1` , no commentary.
Result block: > 100 µM

----------
tested on: OVCAR-4 ovarian; experiment: NCI tumour cell line growth inhibition, 48 h
Known GI50 of a selection of compounds

Worked cases, answers included:
# COMPOUND, OBSERVED
measured = [
    ("COc1cc2c3c(n(CCCCNC(=O)OC(C)(C)C)c(=O)c2cc1OC)-c1cc2c(cc1C3=O)OCO2", "> 100000 nM"),
    ("CC(CN(C)C)S(=O)(=O)c1ccc(-c2cnc(N)c(C(=O)Nc3ccccc3)n2)cc1 (stereo unspecified)", "6950 nM"),
    ("O=C(Nc1ccc2ncnc(Nc3ccc(Oc4cccc(F)c4)c(Cl)c3)c2c1)c1ccc(CN2CCOCC2)cc1", "2530 nM"),
    ("COc1ccc(OC)c(NC(=O)c2cccc(NC3=C(Cl)C(=O)N(Cc4ccccc4)C3=O)c2)c1", "> 100000 nM"),
    ("Cc1ccc(-c2c(C#N)[n+](=O)c3cc(F)c(F)cc3n2[O-])cc1", "21400 nM"),
    ("O=C1/C(=C/c2ccc(F)c(F)c2)CN(C(=O)C(Cl)Cl)C/C1=C\\c1ccc(F)c(F)c1", "233 nM"),
    ("CCC[CH2][Sn]([CH2]CCC)([CH2]CCC)[O]C(=O)C(OC(C)=O)c1ccccc1 (stereo unspecified)", "103 nM"),
    ("COc1cc(OC)c(/C=C/C(=O)c2ccc(Nc3ncnc4ccccc34)cc2)c(OC)c1", "1210 nM"),
    ("C=C1C(=O)O[C@H]2[C@H]1CC/C(COC(=O)c1cn(C)c3ccccc13)=C\\CC[C@@]1(C)O[C@@H]21", "1140 nM"),
    ("CCC#CC[C@H](O)C/C=C1/C(=O)C=C[C@@H]1C/C=C\\CCCC(=O)OC", "2250 nM"),
]

Query block: Provide GI50 value for the following compound: COc1ccc(-c2nsc3c2NC(=O)CC3c2ccc3c(c2)OCCO3)cc1 (stereo unspecified)
Result block: 2860 nM

----------
A collection of molecules and their measured TGI
system: HCC-2998 colon; experiment: NCI tumour cell line growth inhibition, 48 h
// note: answer is a bare numeric in µM

Query block: Provide HCC-2998 colon TGI reading for `O=C1Nc2ccccc2/C1=C\c1cccc(/C=C2/C(=O)Nc3ccccc32)n1` .
Result block: 1.77

Query block: Check HCC-2998 colon data and give TGI for CCN(CC)CCC(=O)OC1C(C)=CC(C)C(=O)CC(C(C)CC2CCC(O)C(OC)C2)OC(=O)C2CCCCN2C(=O)C(=O)[C@@]2(O)OC(CCC2C)CC(OC)\C(C)=C/C=C/C=C/C(C)CC(C)C(=O)C1OC (some centres undefined) .
Result block: 21.8

Query block: Give TGI only, for `Fc1ccc2[nH]cc(-c3nc(-c4c[nH]c5ccncc45)cs3)c2c1` , using HCC-2998 colon data.
Result block: 3.49

Query block: Look up and report measured TGI (HCC-2998 colon) for the following molecule: `O=C1CCCCC/C1=C\c1cccc([N+](=O)[O-])c1`
Result block: 44
